- TARGET OR SYSTEM: human cyclin-dependent kinase 2 (Cdk2) (Homo sapiens, UniProt P24941)
- Construct: poly-histidine; made in house; host or cells: E. coli
- EXPERIMENTAL DETAILS: Kinetic thiol consumption assay with wild type Cdk2 (C177)
- Format: binding
- CONDITION SET: model thiol glutathione
MEASUREMENT NAME: k(Cdk2)/k(GSH) rate enhancement

COMPOUND	k(Cdk2)/k(GSH) rate enhancement
C=CC(=O)N1CC2CCCCCCC21 (stereo not drawn)	0.9287
C=CC(=O)Nc1ccc2c(c1)OC1(CCCC1)O2	0.614
C=CC(=O)N1CCOC2(CCCCC2)C1	1.028
C=CC(=O)N1CC2CN(Cc3ccccc3)CC2C1 (stereo not drawn)	0.5947
C=CC(=O)N1CCC2(CC1)CC2C(=O)OC (stereo not drawn)	1.327
C=CC(=O)N1CCCC1c1cnc2ccccc2c1 (stereo not drawn)	0.489

a = C=CC(=O)N1CC(OCc2cccc3ccccc23)C1
b = C=CC(=O)N1CCCN2C(=O)CCC12c1ccc(OC)cc1 (stereo not drawn)
Query :: Please let me know which one, a or b , has a lower measured k(Cdk2)/k(GSH) rate enhancement value. Which one? Tell me its label.
Result :: b
(b: 0.7249, a: 3.318)

1 = C=CC(=O)N(Cc1ccco1)Cc1ccco1
2 = C=CC(=O)NC(C)c1ccc2c(c1)OCO2 (stereo not drawn)
Query :: Among 1 and 2 , whose measured k(Cdk2)/k(GSH) rate enhancement is the smaller figure? Output the label that corresponds to your choice.
Result :: 2

1 = C=CC(=O)Nc1ccccc1N1CCOCC1
2 = C=CC(=O)Nc1nc2ccccc2n1CCc1ccccn1
3 = C=CC(=O)N(CC(=O)N1CCCC1)CC1CCCO1 (stereo not drawn)
4 = C=CC(=O)N(C(=O)C=C)c1c2ccccc2n2c(C)nc3ccccc3c12
Query :: Order the items by recorded k(Cdk2)/k(GSH) rate enhancement; the first position goes to the largest value. Write the labels in rank order as requested.
Result :: 4, 2, 1, 3

====

- TARGET OR SYSTEM: Cdk2(C177A, F80C) (Homo sapiens, UniProt P24941, C177A/F80C)
- Construct: poly-histidine; made in house; host or cells: E. coli
- EXPERIMENTAL DETAILS: Kinetic thiol consumption assay with Cdk2 mutant F80C, incl. kobs versus concentration (Kd, k2)
- Type: binding
- CONDITION SET: Protein: Cdk2; cysteine position F80C; additional mutation C177A; in h^-1
MEASUREMENT NAME: Rate constant with Cdk2 F80C

COMPOUND	Rate constant with Cdk2 F80C
C=CC(=O)N1CCN(Cc2noc(C3CC3)n2)CC1 [CA-091]	0.0007964

A = C=CC(=O)N1CCCC1CC1CC2CCC1C2 (stereo not drawn) [CA-087]
B = O=C(c1ccccc1)[C@@H]1O[C@H]1c1ccccc1 [EN006]
C = C=CC(=O)NC(C)c1cc(OC)c(OC)c(OC)c1 (stereo not drawn) [EL-1101]
D = C=CC(=O)N(C1CC1)C1CCCCC1C1CCCCC1 (stereo not drawn) [CA-081/240]
E = C=CC(=O)N1CCN(C(=O)OC(C)(C)C)c2ccccc21 [EL-1157]
Query :: Please give the order of these compounds when sorted by Rate constant with Cdk2 F80C, largest value leading. Form field (ranking): labels in requested order.
Result :: E, D, A, C, B

====

- TARGET OR SYSTEM: human cyclin-dependent kinase 2 (Cdk2) (Homo sapiens)
- Construct: poly-histidine; made in house; host or cells: E. coli
- EXPERIMENTAL DETAILS: Kinetic thiol consumption assay with wild type Cdk2 (C177)
- Format: binding
- CONDITION SET: model thiol Cdk2[C177A, F80C, K278C]
MEASUREMENT NAME: k(Cdk2)/k(Cdk2_mut) rate enhancement

MOLECULE	TARGET OR SYSTEM	NUMBER
C=CC(=O)N1CCC2(CC1)NC(=O)N(C)C2=O	human cyclin-dependent kinase 2 (Cdk2) (Homo sapiens)	1.377
C=CC(=O)N1CCCC(N2C(=O)CC3(CCCC3)C2=O)C1 (stereo not drawn)	human cyclin-dependent kinase 2 (Cdk2) (Homo sapiens)	0.2924
C=CC(=O)N1CCN(C(=O)OCC)CC1c1cccs1 (stereo not drawn)	human cyclin-dependent kinase 2 (Cdk2) (Homo sapiens)	0.854
C=CC(=O)N1CCC(c2nnc3n2CCC3)CC1	human cyclin-dependent kinase 2 (Cdk2) (Homo sapiens)	0.9576
C=CC(=O)Nc1ccccc1N1CCOCC1	human cyclin-dependent kinase 2 (Cdk2) (Homo sapiens)	0.277
C=CC(=O)N1CCC2CCC(C1)N2C (stereo not drawn)	human cyclin-dependent kinase 2 (Cdk2) (Homo sapiens)	2.207
C=CC(=O)N(CC(=O)NC1CC1)C1CC1	human cyclin-dependent kinase 2 (Cdk2) (Homo sapiens)	1.479
C=CC(=O)NCc1ccc(F)cc1	human cyclin-dependent kinase 2 (Cdk2) (Homo sapiens)	1.136

a = C=CC(=O)N1CC(n2cccn2)C1
b = C=CC(=O)NCCN1CCOCC1
Query :: Given the two records a and b , choose the one whose k(Cdk2)/k(Cdk2_mut) rate enhancement value is lower. API: response body contains the label of the selected item.
Result :: a

====

- TARGET OR SYSTEM: Cdk2(H71C) (C177A) (Homo sapiens, UniProt P24941, C177A/H71C)
- Construct: poly-histidine; made in house; host or cells: E. coli
- EXPERIMENTAL DETAILS: Kinetic thiol consumption assay with Cdk2 mutant H71C
- Format: binding
- Design: key: rate constant with Cdk2 ÷ rate constant with model thiol (fold)
- CONDITION SET: Cdk2 H71C, additional mutation C177A
MEASUREMENT NAME: Rate enhancement, Cdk2 H71C

A selection of reference data follows.
COMPOUND	MEASUREMENT NAME	NUMBER
C=CC(=O)N1CCCN(Cc2noc(C3CC3)n2)CC1	Rate enhancement, Cdk2 H71C	0.2998
C=CC(=O)N1CCCCCC1c1ccc(N(C)C)cc1 (stereo not drawn)	Rate enhancement, Cdk2 H71C	0
C=CC(=O)NC1(c2noc(C)n2)CCCCCC1	Rate enhancement, Cdk2 H71C	0.4092
C=CC(=O)NCc1ccc(F)cc1	Rate enhancement, Cdk2 H71C	2.5393E−11

I = C=CC(=O)Nc1ccccc1N1CCOCC1
II = C=CC(=O)NCC1(NC(=O)OC(C)(C)C)CCCCC1
Query :: Sorting ascending by Rate enhancement, Cdk2 H71C, which comes first: I or II ? Identify your pick by its label.
Result :: I
(I: 0.1317, II: 0.2745)

====

- TARGET OR SYSTEM: human cyclin-dependent kinase 2 (Cdk2) (Homo sapiens)
- Construct: poly-histidine; made in house; host or cells: E. coli
- EXPERIMENTAL DETAILS: Kinetic thiol consumption assay with wild type Cdk2 (C177)
- Type: binding
- Design: unit not given here
- CONDITION SET: 500 μM ligand, 5 μM thiol, phosphate buffer pH 8
MEASUREMENT NAME: Rate constant with Cdk2 (k(Cdk2))

CHEM SMILES	NUMBER
C=CC(=O)N1CCOC2(CCCCC2)C1	0.02444
C=CC(=O)NCCc1c(-c2ccccn2)[nH]c2ccccc12	0.00098
C=CC(=O)NC1CCN(Cc2ccccc2)CC1	0.00116
C=CC(=O)N1CCCN(Cc2noc(C3CC3)n2)CC1	0.00553

P = C=CC(=O)N1CCN(c2ccccc2C(N)=O)CC1
Q = C=CC(=O)N1CCn2c(Cc3ccccc3)nnc2C1
Query :: Could you determine which record has the numerically smaller Rate constant with Cdk2 (k(Cdk2))? Candidates: P and Q I would appreciate it if you answered with the label of your choice.
Result :: P
(P: 0.00466, Q: 0.2634)

====

- TARGET OR SYSTEM: Cdk2(S276C) (C177A) (Homo sapiens, UniProt P24941, C177A/S276C)
- Construct: poly-histidine; made in house; host or cells: E. coli
- EXPERIMENTAL DETAILS: Kinetic thiol consumption assay with Cdk2 mutant S276C
- Format: binding
- Design: key: rate constant with Cdk2 ÷ rate constant with model thiol (fold)
- CONDITION SET: Cdk2 S276C, additional mutation C177A
MEASUREMENT NAME: Rate enhancement, Cdk2 S276C

COMPOUND	TARGET OR SYSTEM	Rate enhancement, Cdk2 S276C
C=CC(=O)N1CCC2(CC1)CC2C(=O)OC (centres unmarked)	Cdk2(S276C) (C177A) (Homo sapiens, UniProt P24941, C177A/S276C)	1.14

1 = C=CC(=O)Nc1ccccc1C(=O)c1ccccc1
2 = C=CC(=O)NCCc1c[nH]c2ccccc12
Query :: Which shows the larger Rate enhancement, Cdk2 S276C value: 1 or 2 ? Select an item and report its label.
Result :: 1
(1: 1.281, 2: 0.716)
